# tested_on: RelSeq HYD (residues 1–224) (Streptococcus dysgalactiae subsp. equisimilis, UniProt Q54089)
# Construct: His-tag (C); made in house; host or cells: BL21(DE3) Escherichia coli
# Sequence (Q54089 1-224): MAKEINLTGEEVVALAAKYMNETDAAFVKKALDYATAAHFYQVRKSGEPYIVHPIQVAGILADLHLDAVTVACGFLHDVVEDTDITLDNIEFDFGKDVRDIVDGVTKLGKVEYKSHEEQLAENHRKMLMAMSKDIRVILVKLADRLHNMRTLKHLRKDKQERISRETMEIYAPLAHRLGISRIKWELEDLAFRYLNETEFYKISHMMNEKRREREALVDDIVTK
# protocol_notes: Thermal shift assay on RelSeq HYD
# Type: binding, S. equisimilis
# particulars: titration 0.3–10 mM, pH 8
assay_readout: Kd RelSeq HYD

Recorded results for 8 compounds are shown here.
sample_smiles=Nc1ccc(C(=O)O)c(Cl)c1 value_reported="No binding"
sample_smiles=O=C(O)Cc1c[nH]c2ccc(F)cc12 value_reported="No binding"
sample_smiles=COc1cc(C(=O)O)ccc1N value_reported="No binding"
sample_smiles=O=C(O)c1cc2nc[nH]c2cc1C(=O)O value_reported="No binding"
sample_smiles=Nc1ccccc1C(=O)O value_reported="No binding"
sample_smiles=O=C(O)c1ccc2ocnc2c1 value_reported="No binding"
sample_smiles=COc1ccc(C(=O)O)cc1N value_reported="No binding"
sample_smiles=Nc1ccc(F)cc1C(=O)O value_reported="No binding"

The record that follows has no Kd RelSeq HYD shown yet.
// query Record request: Kd RelSeq HYD value, item O=C(O)c1ccc2[nH]ccc2c1
// result No binding
